// data source = patent US20230105108A1

# Test system: E. coli (ATCC 25922)
# protocol-text: MIC determination, sensitization fold and FIC index on E. coli
# Format: cell-based
# condition-set: E. coli; rifampicin; compound up to 25 μM
Counter-ions that a name gives are not always drawn.
property-name: Sensitization

Illustrative cases are given below, each with its answer.
IN: // fetch Sensitization given entry c1cc(COc2ccc(C3=NCCN3)cc2)cc(COc2ccc(C3=NCCN3)cc2)c1 [DB2538, dihydrochloride]
OUT: No effect up to 25 μM

IN: Answer with the recorded Sensitization of Fc1c(COc2ccc(C3=NCCN3)cc2)cccc1COc1ccc(C2=NCCN2)cc1 [DB2510, dihydrochloride] only.
OUT: No effect up to 25 μM

IN: Specify reported Sensitization for the compound shown: CC(C)NC(=N)c1ccc(OCc2cccc(COc3ccc(C(=N)NC(C)C)cc3)c2F)cc1 [MD-110, dihydrochloride]
OUT: No effect up to 25 μM.

IN: In one line, give reported Sensitization of the entry N=C(N)c1ccc(OCc2cccc(COc3ccc(C(=N)N)cc3)n2)cc1 [DB2447] .
OUT: No effect up to 25 μM

Continuing:
IN: Answer with the recorded Sensitization for the compound listed here: N=C(N)c1ccc(OCc2ccc(COc3ccc(C(=N)N)cc3)cc2)cc1 [MD-101, dihydrochloride]
OUT: No effect up to 25 μM

IN: Report measured Sensitization; entry is N=C(N)c1ccc(OCc2cccc(COc3ccc(C(N)=O)cc3)n2)cc1 [DB2449]
OUT: No effect up to 25 μM

IN: Specify measured Sensitization for Fc1cc(C2=NCCN2)ccc1OCc1cccc(COc2ccc(C3=NCCN3)cc2F)c1F [DB2554, dihydrochloride] .
OUT: No effect up to 25 μM

IN: Give the value of Sensitization reported for the following: Cc1cc(COc2ccc(C3=NCCCN3)cc2)cc(COc2ccc(C3=NCCCN3)cc2)c1 [MD-113, dihydrochloride]
OUT: No effect up to 25 μM.

IN: Respond only with Sensitization recorded for CC(C)NC(=N)c1ccc(OCc2cccc(COc3ccc(C(=N)NC(C)C)cc3F)c2F)c(F)c1 [MD-111, dihydrochloride]
OUT: No effect up to 25 μM.

IN: Read off the recorded Sensitization for N=C(N)c1ccc(OCOc2ccc(C(=N)N)cc2)cc1 [DB1824]
OUT: No effect up to 25 μM

IN: Retrieve Sensitization measured for Cc1cc(COc2ccc(C(=N)NC(C)C)cc2)cc(COc2ccc(C(=N)NC(C)C)cc2)c1 [MD-102, dihydrochloride] and print it.
OUT: No effect up to 25 μM.

IN: Write down Sensitization measured for item Cc1cc(CSc2ccc(C3=NCCN3)cc2)cc(CSc2ccc(C3=NCCN3)cc2)c1 [MD-118, dihydrochloride]
OUT: No effect up to 25 μM.

IN: Supply measured Sensitization of Cc1cc(-c2nc3cc(C(=N)N)ccc3n2C)sc1-c1ccc(OCCCCOc2ccc(C(=N)N)cc2)cc1 [DB2583] in your reply.
OUT: No effect up to 25 μM

IN: Supply measured Sensitization of Cc1cc(COc2ccc(C3=NCCN3)cc2)cc(COc2ccc(C3=NCCN3)cc2)c1 [MD-129, dihydrochloride] in your reply.
OUT: No effect up to 25 μM

IN: Read off the recorded Sensitization for COc1cc(C2=NCCN2)ccc1OCc1cccc(COc2ccc(C3=NCCN3)cc2OC)c1F [DB2555, dihydrochloride]
OUT: No effect up to 25 μM
